experiment.notes: kinetic analysis, non-endpoint assay at 23° C.
Assay type: biochemical
condition.parameters: standard error in parenthetical, NDB = activity not robust enough for kinetic characterization
measured.endpoint: Vmax 2,4-D

molecule="MON-HT9: engineered oxygenase protein, amino acid sequence SEQ ID NO:40 (protein) MHAALTPLTNKYRFIDVQPLTGVLGAEITGVDLREPLDDSTWNEILDAFHTYQVIYFPAQQITNEQHISFSRRFGPVDPVPLLKSIEGYPEVQMIRREANESGRILGDDWHTDSTFLDAPPAAVVMRAIEVPEYGGDTGFLSMYSAWDTLSDTMKATIEGLNVVHSATRVFGSLYQAQNWRFSNTSVKVMDVDAGDRETVHPLVVSHPVTGRRALYCNQVYCQRIEGMTDAESKCLLQFLYEHATKFDFTCRVRWKKDQVLVWDNLCTMHRAVPDYAGKFRYLTRTTVAGDRPAR" result=NDB
